Data credit: ChEMBL document CHEMBL1909046

# Target or system: Vascular endothelial growth factor receptor 1 (Homo sapiens); note: in other assays of this panel Not Active means under 50% inhibition at 10 µM
# Sequence (P17948 whole entry): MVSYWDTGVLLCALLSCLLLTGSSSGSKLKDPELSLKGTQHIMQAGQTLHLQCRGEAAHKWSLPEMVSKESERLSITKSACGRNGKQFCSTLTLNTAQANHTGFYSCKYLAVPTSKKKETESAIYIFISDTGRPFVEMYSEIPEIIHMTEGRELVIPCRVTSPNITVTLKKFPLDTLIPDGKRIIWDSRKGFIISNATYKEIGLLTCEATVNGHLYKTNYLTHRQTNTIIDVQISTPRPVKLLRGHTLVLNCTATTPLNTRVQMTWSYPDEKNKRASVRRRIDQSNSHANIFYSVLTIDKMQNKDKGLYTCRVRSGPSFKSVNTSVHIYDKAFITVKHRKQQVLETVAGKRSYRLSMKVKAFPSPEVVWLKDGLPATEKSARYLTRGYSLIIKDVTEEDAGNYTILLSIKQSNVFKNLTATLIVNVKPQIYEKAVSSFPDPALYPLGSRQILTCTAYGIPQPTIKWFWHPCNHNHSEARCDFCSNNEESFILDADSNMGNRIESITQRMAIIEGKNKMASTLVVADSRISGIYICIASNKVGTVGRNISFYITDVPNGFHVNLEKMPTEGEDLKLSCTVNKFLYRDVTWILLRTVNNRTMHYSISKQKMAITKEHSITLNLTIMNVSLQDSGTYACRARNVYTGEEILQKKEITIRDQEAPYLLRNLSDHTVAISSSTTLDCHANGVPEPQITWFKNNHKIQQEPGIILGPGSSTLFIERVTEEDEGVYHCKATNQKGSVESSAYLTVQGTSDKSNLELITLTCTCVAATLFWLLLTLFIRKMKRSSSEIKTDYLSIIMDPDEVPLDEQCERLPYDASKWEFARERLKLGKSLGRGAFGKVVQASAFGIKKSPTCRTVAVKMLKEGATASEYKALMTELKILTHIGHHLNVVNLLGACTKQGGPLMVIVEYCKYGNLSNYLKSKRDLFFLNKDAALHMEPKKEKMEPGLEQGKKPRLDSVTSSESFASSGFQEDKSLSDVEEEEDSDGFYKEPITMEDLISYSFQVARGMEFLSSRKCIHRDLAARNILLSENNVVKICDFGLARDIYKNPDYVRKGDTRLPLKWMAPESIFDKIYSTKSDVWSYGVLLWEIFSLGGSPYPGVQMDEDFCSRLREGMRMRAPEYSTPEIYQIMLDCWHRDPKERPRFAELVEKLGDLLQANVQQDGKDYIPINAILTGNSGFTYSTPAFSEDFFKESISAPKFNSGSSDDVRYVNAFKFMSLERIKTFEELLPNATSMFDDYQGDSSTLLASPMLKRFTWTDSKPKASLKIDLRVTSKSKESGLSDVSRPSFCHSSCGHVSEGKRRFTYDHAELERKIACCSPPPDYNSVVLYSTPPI
# Type: cell-based
# Particulars: huvec
Endpoint label: IC50

Solved entries (count: 6):
CCOc1nc2cccc(C(=O)O)c2n1Cc1ccc(-c2ccccc2-c2nnn[nH]2)cc1
Not Active
O=C(O)c1ccccc1O
Not Active
C#C[C@]1(O)CC[C@H]2[C@@H]3CCC4=CC(=O)CC[C@]4(C)[C@H]3CC[C@@]21C
Not Active
CC(C)NC[C@H](O)COc1cccc2ccccc12
Not Active
O=C(O)c1cc(-c2ccc(F)cc2F)ccc1O
Not Active
CS(=O)(=O)Nc1ccc([N+](=O)[O-])cc1Oc1ccccc1 [NIMESULIDE]
Not Active

Give measured IC50 for every item shown.
1. Cn1c(=O)c2c(ncn2C)n(C)c1=O
2. O=c1[nH]c(=O)n([C@H]2C[C@H](O)[C@@H](CO)O2)cc1F
3. CCc1ccc(CCOc2ccc(CC3SC(=O)NC3=O)cc2)nc1 (stereo not given)
4. C[C@]12CC[C@H]3[C@@H](CCC4=CC(=O)CC[C@@H]43)[C@@H]1CC[C@@H]2O
5. C[S+](C)[O-] [DIMETHYL SULFOXIDE]
6. O=c1[nH]c(=O)n(C2CCCO2)cc1F (stereo not given)

["Not Active", "Not Active", "Not Active", "Not Active", "Not Active", "Not Active"]

Give measured IC50 for every item shown.
1. CCCCC(=O)N(Cc1ccc(-c2ccccc2-c2nnn[nH]2)cc1)[C@H](C(=O)O)C(C)C
2. CC(C)(C)NCC(O)COc1cccc2c1CC(O)C(O)C2 (stereo not given)
3. CC(C)NCC(O)c1ccccc1Cl (stereo not given)
4. CCCCCCCCNC(C)C(O)c1ccc(SC(C)C)cc1 (stereo not given)

["Not Active", "Not Active", "Not Active", "Not Active"]

Give measured IC50 for every item shown.
1. Nc1cc(-c2ccncc2)c[nH]c1=O
2. CN(C)C(=O)Oc1cccc([N+](C)(C)C)c1.[Br-] [NEOSTIGMINE BROMIDE]
3. Cc1ccc(C)c(OCCCC(C)(C)C(=O)O)c1

1. Not Active
2. Not Active
3. Not Active

Fill in the recorded IC50 for this molecule, with Vascular endothelial growth factor receptor 1 (Homo sapiens) as test system: O=C(c1ccccc1F)N1CCC(Cc2ccccc2)CC1
Not Active
